Reported hTLR8 wt (LEC) values are given for each entry in this list.
System: human TLR8 (hTLR8) (Homo sapiens, UniProt Q9NR97)
Construct: expressed in transfected cells; host or cells: HEK293
Sequence (Q9NR97 27-1041): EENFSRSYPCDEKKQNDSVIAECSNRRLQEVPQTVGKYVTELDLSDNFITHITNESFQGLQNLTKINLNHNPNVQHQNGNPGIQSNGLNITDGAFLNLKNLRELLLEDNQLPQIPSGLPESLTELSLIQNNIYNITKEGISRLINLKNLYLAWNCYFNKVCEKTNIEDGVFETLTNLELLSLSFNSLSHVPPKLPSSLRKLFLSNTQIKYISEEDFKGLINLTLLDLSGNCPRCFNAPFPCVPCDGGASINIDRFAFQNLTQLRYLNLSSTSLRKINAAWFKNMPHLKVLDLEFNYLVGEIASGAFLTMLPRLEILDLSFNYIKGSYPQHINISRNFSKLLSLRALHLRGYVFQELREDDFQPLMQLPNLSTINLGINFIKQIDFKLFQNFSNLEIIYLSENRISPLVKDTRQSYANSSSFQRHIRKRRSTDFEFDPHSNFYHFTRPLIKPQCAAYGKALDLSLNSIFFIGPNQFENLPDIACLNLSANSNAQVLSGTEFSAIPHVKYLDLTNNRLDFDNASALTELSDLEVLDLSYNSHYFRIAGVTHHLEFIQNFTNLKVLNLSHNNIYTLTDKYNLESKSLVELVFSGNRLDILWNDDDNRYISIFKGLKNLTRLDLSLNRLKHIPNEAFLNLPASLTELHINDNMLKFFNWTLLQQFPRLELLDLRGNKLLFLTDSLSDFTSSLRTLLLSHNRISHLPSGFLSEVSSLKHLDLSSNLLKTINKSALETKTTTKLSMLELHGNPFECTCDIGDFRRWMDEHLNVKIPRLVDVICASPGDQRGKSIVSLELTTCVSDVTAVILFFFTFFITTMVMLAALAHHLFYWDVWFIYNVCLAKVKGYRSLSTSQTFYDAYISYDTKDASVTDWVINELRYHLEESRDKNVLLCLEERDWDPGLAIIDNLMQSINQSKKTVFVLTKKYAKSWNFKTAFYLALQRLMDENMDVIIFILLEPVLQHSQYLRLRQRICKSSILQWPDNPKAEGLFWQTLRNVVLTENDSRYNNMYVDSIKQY
Test Summary: TLR8 cellular NFκB-luc reporter assay in transiently transfected HEK293 cells
Type: cell-based
Set-up: unit not given here
Condition Summary: lowest effective concentration, wild type TLR8, 48 hours incubation
Endpoint: hTLR8 wt (LEC)

> print(dat)
                       compound.smiles                                    system  measured.value
1  CCCCNc1nc(N)ncc1CCc1ccc(OC)cc1OC.Cl  human TLR8 (hTLR8) (Homo sapiens, UniProt Q9NR97)              12
2      CCCCNc1nc(N)ncc1CCc1ccccc1OC.Cl  human TLR8 (hTLR8) (Homo sapiens, UniProt Q9NR97)              13
3        CCCCNc1nc(N)ncc1CCc1cccnc1.Cl  human TLR8 (hTLR8) (Homo sapiens, UniProt Q9NR97)             1.4
4        CCCCNc1nc(N)ncc1CCc1ccccn1.Cl  human TLR8 (hTLR8) (Homo sapiens, UniProt Q9NR97)             1.6
5                CCCCNc1nc(N)ncc1CC.Cl  human TLR8 (hTLR8) (Homo sapiens, UniProt Q9NR97)             1.3
6  CCCCNc1nc(N)ncc1CCc1ccc2ccccc2n1.Cl  human TLR8 (hTLR8) (Homo sapiens, UniProt Q9NR97)             1.2
7         CCCCNc1nc(N)ncc1CCc1cccs1.Cl  human TLR8 (hTLR8) (Homo sapiens, UniProt Q9NR97)             3.6
8        CCCCNc1nc(N)ncc1CCc1ccccc1.Cl  human TLR8 (hTLR8) (Homo sapiens, UniProt Q9NR97)             6.5

Values compiled from patent US9284304B2.
